Entries annotated with measured cell viability
- System: HepG2
- test_description: cell viability relative to DMSO; higher = less toxic
- experimental_parameters: 72 h; 10 nM

Use these answered entries as a reference point.
1) COc1cccc(OC)c1C(=O)N[C@@H]1C(=O)N2[C@@H]1SC(C)(C)[C@@H]2C(=O)O [methicillin]    96.1%
2) CC(C)(CO)c1cc2cc(NC(=O)C3(c4ccc5c(c4)OC(F)(F)O5)CC3)c(F)cc2n1C[C@@H](O)CO [tezacaftor]    102%
3) CC[C@H]1OC(=O)[C@@](C)(F)C(=O)[C@H](C)[C@@H](O[C@@H]2O[C@H](C)C[C@H](N(C)C)[C@H]2O)[C@](C)(OC)C[C@@H](C)C(=O)[C@H](C)[C@H]2N(CCCCn3cc(-c4cccc(N)c4)nn3)C(=O)O[C@]12C [solithromycin]    102%
4) CCc1cc(C(C)=O)c(O)cc1OCCCCCC(C)(C)c1nn[nH]n1    107%

Exercise: Find the recorded cell viability belonging to O=C(O)c1ccc(S(=O)(=O)N(Cl)Cl)cc1 [halazone] and report it.
Solution: 94.1%

Exercise: Requested field: cell viability. Item: NCCCCN(Cc1nc2ccccc2[nH]1)[C@H]1CCCc2cccnc21
Solution: 104%

Exercise: What value of measured cell viability is listed for OB1OCc2cc(F)ccc21 [tavaborole] ?
Solution: 105%

Exercise: Value lookup for cell viability; key = Cc1sc2c(c1C)C(c1ccc(Cl)cc1)=N[C@@H](CC(=O)Nc1ccc(OCCOCCOCCOCCNc3cccc4c3C(=O)N(C3CCC(=O)NC3=O)C4=O)cc1)c1nnc(C)n1-2 (stereo not given in full) [ARV-825]
Solution: 103%

Exercise: Look up cell viability: COc1ccc(CCN2CCN(CCCc3ccccc3)CC2)cc1OC [cutamesine]
Solution: 97.2%

Exercise: Which cell viability is reported for this compound? Oc1cccc(-c2c3nc(c(-c4cccc(O)c4)c4ccc([nH]4)c(-c4cccc(O)c4)c4nc(c(-c5cccc(O)c5)c5ccc2[nH]5)CC4)C=C3)c1 [temoporfin]
Solution: 105%

Entry source: the supplement of paper PMC13380429
